- test-protocol: log P by HPLC on reversed-phase column (C 18), EEC Directive 79/831 Annex V.A8
- Type: physicochemical
- run-parameters: reversed-phase HPLC column (C 18), pH 7.8, LC-MS neutral range, pH 7.8, ammonium hydrogencarbonate/acetonitrile, 55° C.; read-out: log P (neutral)
- Experimental: Temperature: 55° C. […] Called log P (HCOOH) in the table. […] Called log P (neutral) in the table.
Recorded measurements of chromatographic logP, one per entry

| compound | chromatographic logP |
| --- | --- |
| CC(C)ONC(=O)c1cc(-c2ccc(OC(F)(F)F)cc2)cc(NC(=O)C2CC2)n1 [Example I-237] | 3.45 |
| COC(=O)N(Cc1ccc(C#N)cc1)C(=O)c1cc(-c2ccc(OC(F)(F)F)cc2)cc(NC(=O)C2CC2)n1 [Example I-231] | 4.43 |
| CCc1cc(C(F)(F)C(F)(F)F)cc(C)c1-c1cc(NC(=O)C2CC2)nc(C(=O)NCc2ccc(C#N)cc2)c1 [Example I-148] | 4.72 |
| N#Cc1ccc(CNC(=S)c2cc(-c3ccc(OC(F)(F)F)cc3)cc(NC(=S)C3CC3)n2)cc1 [Example I-181] | 5.43 |
| N#Cc1ccc(CNC(=O)c2cc(-c3ccc(C(F)(F)F)cc3)cc(N(C(=O)C3CC3)C(=O)C3CC3)n2)cc1F [Example I-028] | 4.18 |
| Nc1cc(-c2ccc(C(F)(F)C(F)(F)F)c(F)c2)cc(Cl)n1 [XXI-1] | 3.83 |
| N#Cc1ccc(CNC(=O)c2cc(-c3ccc(Cl)cc3)cc(NC(=O)C3CC3)n2)cc1 [Example I-020] | 3.54 |
